Target: UniProt:P28222
Sequence (P28222 whole entry): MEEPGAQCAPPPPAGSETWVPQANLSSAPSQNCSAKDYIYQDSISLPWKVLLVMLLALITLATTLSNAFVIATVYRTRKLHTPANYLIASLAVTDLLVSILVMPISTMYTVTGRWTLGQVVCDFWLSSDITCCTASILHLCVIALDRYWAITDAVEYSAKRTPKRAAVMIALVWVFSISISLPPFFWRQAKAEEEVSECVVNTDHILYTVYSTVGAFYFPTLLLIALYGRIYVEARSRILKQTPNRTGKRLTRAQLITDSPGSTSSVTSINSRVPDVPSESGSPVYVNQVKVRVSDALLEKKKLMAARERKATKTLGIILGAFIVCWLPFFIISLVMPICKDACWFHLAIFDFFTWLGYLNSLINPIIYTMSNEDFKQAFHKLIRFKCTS
pKd: −log10 of the molar value.

Compound | pKd
COc1ccc(NC(=O)c2ccc(-c3ccncc3)c(C)c2)cc1N1CCN(C)CC1 [[^3H]-GR125743] | 9.60 to 9.82

====

Value type: melting point

Compound | Data value
COc1cc(N2CCN(C)CC2)c2oc(C(=O)Nc3ccc(N4CCOCC4)cc3)cc(=O)c2c1 [Example 31] | 234 to 236 °C
CCS(=O)(=O)N1CCN(c2ccc(NC(=O)c3cc(=O)c4cc(F)cc(N5CCN(C)CC5)c4o3)cc2)CC1 [Example 71] | 233 to 234 °C
CN1CCN(c2cccc3c2OC(C(=O)Nc2ccc(N4CCOCC4)cc2)CC3=O)CC1 (single isomer, unassigned) [Example 80] | 215 °C (dec.)
CN1CCN(c2cccc3c(=O)cc(-c4nc5ccc(N6CCOCC6)cc5o4)oc23)CC1 [Example 21] | 158.1 to 158.8 °C
CN1CCN(c2cccc3c2OC(C(=O)Nc2ccc(N4CCOCC4)cc2)CC3=O)CC1 (racemic) [Example 78] | 215 to 216 °C
CN1CCN(c2cccc3c(=O)cc(C(=O)Nc4ccc(N5CCOCC5)cc4O)oc23)CC1 [Example 22] | 248.4 to 249.6 °C
CN1CCN(c2cccc3c(=O)cc(C(=O)Nc4ccc(N5CCOCC5)cc4)oc23)CC1 [Example 1] | 217 to 218 °C (dec.)
CN1CCN(c2cccc3c2OC(C(=O)Nc2ccc(N4CCOCC4)cc2)CC3)CC1 (racemic) [Example 75] | 215 to 216 °C
CN1CCN(c2cccc3c2OC(C(=O)Nc2ccc(N4CCOCC4)cc2)CC3)CC1 (single isomer, unassigned; (-)) [Example 77] | 205.5 to 207 °C
COc1cc(N2CCN(C)CC2)c2oc(C(=O)Nc3ccc(N4CCN(C(=O)CCO)CC4)cc3)cc(=O)c2c1 [Example 68] | 195 to 197 °C
CN1CCN(c2cc(F)cc3c(=O)cc(C(=O)Nc4ccc(N5CCN(C(=O)CCO)CC5)cc4)oc23)CC1 [Example 73] | 195 to 199 °C
CN1CCN(c2cccc3c2OC(C(=O)Nc2ccc(N4CCOCC4)cc2)CC3)CC1 (single isomer, unassigned; (+)) [Example 76] | 206 to 207 °C
CN1CCN(c2cccc3c2OC(C(=O)Nc2ccc(N4CCOCC4)cc2)CC3=O)CC1 (single isomer, unassigned) [Example 79] | 216 °C (dec.)
